# Assayed target: GTPase KRas (Homo sapiens, UniProt P01116, G12V)
# Sequence (P01116 whole entry G12V): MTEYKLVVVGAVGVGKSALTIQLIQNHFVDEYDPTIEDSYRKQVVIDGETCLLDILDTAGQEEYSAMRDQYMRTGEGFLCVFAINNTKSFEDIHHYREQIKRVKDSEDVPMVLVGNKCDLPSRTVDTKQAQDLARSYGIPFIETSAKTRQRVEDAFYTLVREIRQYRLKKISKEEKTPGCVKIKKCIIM
# Procedure summary: Inhibition of GDP bound KRAS G12V mutant (unknown origin)
pIC50: −log10 of the molar value.
Measurement type: pIC50

Sample records with pIC50:
INSERT INTO measurements (molecule, measurement_type, readout_value) VALUES
  ('[2H]C([2H])([2H])N(c1nc(OC([2H])([2H])C23CCC([2H])([2H])N2C[C@]([2H])(F)C3)nc2c(F)c(-c3cc(O)cc4ccc(F)c(C#C)c34)ncc12)[C@H]1C[C@@H]1F (some centres not stated)', 'pIC50', 9.67),
  ('C#Cc1c(F)ccc2cc(O)cc(-c3ncc4c(N(C)[C@H]5C[C@@H]5F)nc(OC[C@]56CCCN5CC(=C)C6)nc4c3F)c12', 'pIC50', 9.23),
  ('C#Cc1c(F)ccc2cc(O)cc(-c3ncc4c(N(C)[C@H]5C[C@@H]5F)nc(OCC56CCCN5CC(=C)C6)nc4c3F)c12.OCC(F)(F)F (some centres not stated)', 'pIC50', 9.43);

1 = C#Cc1c(F)ccc2cc(N)cc(-c3ncc4c(N(C)[C@H]5C[C@@H]5F)nc(OCC56CCCN5CC(=C)C6)nc4c3F)c12.OCC(F)(F)F (some centres not stated)
2 = C#Cc1c(F)ccc2cc(O)cc(-c3ncc4c(N(C)[C@H]5C[C@@H]5F)nc(OCC56CCCN5CC(=C)C6)nc4c3F)c12 (some centres not stated)
3 = [2H]C([2H])([2H])N(c1nc(OC([2H])([2H])C23CCC([2H])([2H])N2C[C@@]([2H])(F)C3)nc2c(F)c(-c3cc(O)cc4ccc(F)c(C#C)c34)ncc12)[C@H]1C[C@@H]1F (some centres not stated)
4 = C#Cc1c(F)ccc2cc(O)cc(-c3ncc4c(N(C)[C@H]5C[C@@H]5F)nc(OC[C@@]56CCCN5CC(=C)C6)nc4c3F)c12
**Q:** Order the entries by their reported pIC50, beginning at the minimum. Record the ranking as a list of labels in the requested order.
**A:** 1, 3, 2, 4
